- Tested on: KM12 colon
- measurement.notes: NCI-60 one-dose screen, 48 h
- condition.info: 10 µM unless noted
The panel holds about 83,000 compounds, 20% with a hit somewhere; the sample as a whole holds those more often. The source made the active and inactive calls. Rule for the calls: active = growth percent below 10; inactive = the rest.
Field 'call' accepts yes (active), no (inactive)

CC(=O)c1c(/C=C/c2ccc(C)cc2)c2ccccc2[nH]c1=O: no
Nc1ccc(Cl)c2c(=O)c3ccccc3[nH]c12: no
Cc1nc2ccccc2c(/C=C/c2ccc(Cl)cc2)c1C(=O)/C=C/c1ccccc1: no
CN1CCN(Cn2nc(-c3cc(Cl)cc(Cl)c3Cl)oc2=S)CC1: no
Cc1ccc(C23CCC(=O)N2CCc2cncn23)cc1 (centres undefined): no

Continue with the next molecule.
query: How did this test come out for Cc1ccc(C2(C)NC(=O)N(CC(=O)Nc3cccc(C)c3)C2=O)cc1 (centres undefined) ?
result: no

====

Kindly state growth for each of the entries shown.
- Tested on: RXF 393 renal
- measurement.notes: NCI-60 one-dose screen, 48 h (100 = growth as untreated, 0 = no growth, -100 = all killed)
- condition.info: 10 µM unless noted
About 83,000 compounds went through this panel and 20% of them were active in at least one assay; those are over-represented in the sample as a whole. Active and inactive are the calls of the source. Rule for the calls: active = growth percent below 10; inactive = the rest.

// known answers, use as guide
CCCCN(CCC#N)C(N)=O: 109% (inactive)
Cc1cc(C(=O)Nc2cc(Nc3ncccc3-c3ncnc4nc[nH]c34)ccc2F)cc(C(C)(C)C#N)c1: 88.5% (inactive)

Batch request: growth per item, same order as input.
1. CN1CCN(Cc2ccc(NC(=O)c3cncc(C#Cc4cnc(N)c5ncccc45)c3)cc2Cl)CC1
2. CC(=O)c1c(/C=C/c2ccc(C)cc2)c2ccccc2[nH]c1=O
3. COc1cccc2cc(N(C)c3ncnc4ccccc34)ccc12
4. [2H]C([2H])([2H])Oc1c(F)cccc1/C=C/C(=O)/C=C(O)/C=C/c1cccc(F)c1OC([2H])([2H])[2H]

result:
1: 21.8% (inactive); 2: 104% (inactive); 3: 25.9% (inactive); 4: 106% (inactive)

Parameters: items (list). Returns: growth for each item.
1. N=C(N)c1ccc(-c2ccc(-c3ccc(Cl)cc3Cl)s2)nc1
2. CCOC(=O)c1cc(C(=O)c2cc(OC)cc(OC)c2)n2ncccc12

result:
1. 79.8% (inactive)
2. 35.9% (inactive)

Give growth for each of the items listed below.
1. CCOC(=O)c1c(N)sc2cc(O)ccc12
2. CCOC(=O)C1=C(c2ccccc2)N=C2SC=C(c3cccc([N+](=O)[O-])c3)N2C1c1ccc(O)cc1 (stereo unspecified)
3. CNC1=C(Br)C(=O)c2c(C(=O)OC)c(C)nc(C)c2C1=O

result:
1. 115% (inactive)
2. 89.1% (inactive)
3. 63.5% (inactive)

====

- System: NCI-H23 lung
- measurement.notes: NCI-60 one-dose screen, 48 h (100 = growth as untreated, 0 = no growth, -100 = all killed)
- condition.info: 10 µM unless noted
- Procedure: Growth inhibition of the NCI-H23 human Non-Small Cell Lung tumor cell line is measured as a screen for anti-cancer activity. Cells are grown in 96 well plates and exposed to the test compound for 48 hours. Compounds are tested at a single concentration, which is 10^-5 M for most compounds. The reported endpoint is percent growth (GI% or GIPRCNT), where numbers from 0 - 100% represent growth inhibition, and numbers from -100% - 0 represent cell death. […]
This is part of a sample that, as a whole, favours compounds with a hit. Of some 83,000 tested, about 20% had one in any assay.
Would you mind telling me the reported growth of each entry?
Answers are plain numbers, in %.

Please give growth for each item listed below.
1. C=C(C[n+]1ccccc1)[C@@H]1CC[C@]2(C(=O)OC)CC[C@]3(C)[C@H](CC[C@@H]4[C@@]5(C)CCC(=O)C(C)(C)[C@@H]5CC[C@]43C)[C@@H]12
2. Oc1ccc(C(c2ccc(O)cc2)c2ccc(Cl)cn2)cc1
3. CN(C)CCOc1ccc(/C(=C(/CCCCCCCCCC[P+](c2ccccc2)(c2ccccc2)c2ccccc2)c2ccccc2)c2ccccc2)cc1
4. COc1ccc(-n2c(=O)n(-c3ccc(-c4nc5ccc(F)cc5s4)cc3)c(=O)c3cccnc32)cc1

result:
1. 87.9
2. -4.57
3. -83.2
4. 89.9
